- Method: yeast NALP1 reporter signal suppression – S. cerevisiae, luminescence, single concentration, NALP1 inhibitor project, confirmation (AID 488841);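 also: plate controls were DMSO in galactose medium for no effect and cells in plain SD medium for full effect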
- Condition label: S. cerevisiae NALP1/ASC/Caspase-1 reporter, beta-gal luminescence; at 10 µM
Among all 1,400 compounds or so, about 380 (27%) were called active.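 The calls were made as follows: active = mean inhibition above 50% across duplicate retests at 10 µM; inactive = the rest.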 Some of the results follow.
Outcome codes: active, inactive

Compound: COc1ccc(-c2nc(CCNC(=O)c3cccs3)cs2)cc1
Category: inactive

Compound: O=C(NCCCn1ccnc1)c1ccc(Br)o1
Category: inactive

Compound: COc1ccccc1NC(=O)C1=C(C)NC(=O)NC1c1cccs1 (stereo unspecified)
Category: inactive

Compound: O=C(c1ccc(Br)s1)N1CCN(C/C=C/c2ccccc2)CC1
Category: active

Compound: COC(=O)c1ccccc1NC(=O)N1CCN(C/C=C/c2ccccc2)CC1
Category: inactive

Compound: O=C(NCCc1csc(-c2ccccc2)n1)c1ccc(Br)o1
Category: active

Compound: CCOC(=O)C(=Cc1cc(=O)c(OC)co1)C(=O)OCC
Category: active

Compound: COc1ccc(NC(=O)N2CCC(CO)(CC3CCCCO3)CC2)c(OC)c1 (stereo unspecified)
Category: inactive

Compound: COc1ccc(-c2nc3c(c(=O)[nH]c(=O)n3Cc3ccccc3)n2C)cc1
Category: inactive

Compound: CCCCn1cnc2c1c(=O)[nH]c(=O)n2CCCC
Category: inactive

Compound: CC(C)CN=C(NS(=O)(=O)c1ccccc1)C(Cl)(Cl)Cl
Category: inactive

###

- Method: yeast NALP1 reporter signal suppression – S. cerevisiae, luminescence, single concentration, NALP1 inhibitor project, confirmation (AID 488841);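 also: plate controls were DMSO in galactose medium for no effect and cells in plain SD medium for full effect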
- Condition label: S. cerevisiae NALP1/ASC/Caspase-1 reporter, beta-gal luminescence; at 10 µM; hits give high values
The campaign covered roughly 1,400 compounds. About 380 (27%) were called active. This is one part of the list.

Molecule: COc1ccc(N2CCN(CC(=O)NC(=O)NCc3ccco3)CC2)cc1
inhibition [%]: 28.6
--
Molecule: CCOC(=O)C1CCCN(C2CC(=O)N(c3cccc(C(F)(F)F)c3)C2=O)C1 (stereo unspecified)
inhibition [%]: 32.6
--
Molecule: O=C(Cc1noc2ccccc12)Nc1ccc(Cl)cc1
inhibition [%]: 55.3
--
Molecule: COc1ccc2c(c1)NC(=O)CC(c1ccccc1)=N2
inhibition [%]: 43.5
--
Molecule: O=C(Cn1c(=O)oc2ccccc21)Nc1ccc(Cl)cc1
inhibition [%]: 33
--
Molecule: CC(=O)N1N=C(c2ccc3ccccc3c2)OC1(C)C
inhibition [%]: 77.3

###

- Method: yeast NALP1 reporter signal suppression – S. cerevisiae, luminescence, single concentration, NALP1 inhibitor project, confirmation (AID 488841);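 also: plate controls were DMSO in galactose medium for no effect and cells in plain SD medium for full effect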
- Condition label: S. cerevisiae NALP1/ASC/Caspase-1 reporter, beta-gal luminescence; at 10 µM; hits give high values
Screen size: about 1,400 compounds; about 380 (27%) were called active. Some of the results follow.
Examples of molecules with documented inhibition follow.

Molecule: O=P(CCCCCCCCCP(=O)(c1ccccc1)c1ccccc1)(c1ccccc1)c1ccccc1
Scale unit: %
inhibition: 39
//
Molecule: C/C(=N\NC(=O)c1csc(C)c1C)c1ccc(Cl)s1
Scale unit: %
inhibition: 40.9
//
Molecule: O=C(Nc1ccc2c(c1)CCC2)c1ccccc1
Scale unit: %
inhibition: 73.4
//
Molecule: CCCSc1ccc2nc(-c3ccccc3)cn2c1
Scale unit: %
inhibition: 75.4
//
Molecule: O=C(Nc1ccc2nc3n(c(=O)c2c1)CCCC3)c1cc([N+](=O)[O-])ccc1F
Scale unit: %
inhibition: 64.8
//
Molecule: O=C(Nc1ccc2c(c1)Cc1ccccc1-2)c1ccncc1
Scale unit: %
inhibition: 64.8
//
Molecule: Cc1nc(-c2ccccc2)sc1C(=O)CSc1ccccc1
Scale unit: %
inhibition: 42
//
Molecule: NCCS
Scale unit: %
inhibition: 55.1
//
Molecule: COc1ccccc1C/C(N)=N/OC(=O)c1cccc([N+](=O)[O-])c1C
Scale unit: %
inhibition: 37.2
//
Molecule: Nc1ccc(C(=O)Nc2nc3ccccc3s2)cc1
Scale unit: %
inhibition: 69.7
//
Molecule: CCCCCCCCNC(C)C(O)c1ccc(SC(C)C)cc1 (configuration not stated)
Scale unit: %
inhibition: 46.5
//
Molecule: CC1CCCCN1C(=S)Nc1ccc2nc3n(c(=O)c2c1)CCCCC3 (configuration not stated)
Scale unit: %
inhibition: 35

###

# key: entry, value: inhibition
- Method: yeast NALP1 reporter signal suppression – S. cerevisiae, luminescence, single concentration, NALP1 inhibitor project, confirmation (AID 488841);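 also: plate controls were DMSO in galactose medium for no effect and cells in plain SD medium for full effect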
- Condition label: S. cerevisiae NALP1/ASC/Caspase-1 reporter, beta-gal luminescence; at 10 µM; hits give high values
About 380 (27%) of roughly 1,400 compounds were called active. The list shows a part of the results.

Compound: CSCc1ccc(C(=O)Nc2cc(C)cc(C)c2)cc1
inhibition (%): 76
--
Compound: CCOC(=O)CSc1nnc(-c2ccccc2)c(=O)[nH]1
inhibition (%): 33.8
--
Compound: CCSc1ncc(/C=N/Nc2ccccc2)n1C
inhibition (%): 68.9
--
Compound: OCCCN=c1cc(-c2ccccc2)oc2ccc(Cl)cc12
inhibition (%): 43.6
--
Compound: CC(C)CCN(C(=O)Nc1ccccc1)C(C)c1cccs1 (configuration not stated)
inhibition (%): 29.9
--
Compound: COc1ccc(C)cc1NC(=O)c1ccc(CN2CCN(c3ccccc3)CC2)cc1
inhibition (%): 47.2
--
Compound: CCCc1nn(C)c(C(=O)Nc2cccc(C)c2)c1Cl
inhibition (%): 42.2
--
Compound: O=C(Cn1nnc2ccccc21)OCC(=O)c1ccc(Cl)cc1
inhibition (%): 40.5
--
Compound: O=C1C=CCC(/C=C/c2ccccc2)O1 (configuration not stated)
inhibition (%): 69.2
--
Compound: CCN(CC)C1CC(=O)N(c2cccc(C)c2)C1=O (configuration not stated)
inhibition (%): 57.5
--
Compound: CCn1c(C)[n+](CC(O)COCC2CC=CCC2)c2ccccc21 (configuration not stated)
inhibition (%): 40
--
Compound: Cc1cc(C)cc(NS(=O)(=O)c2ccc(NC(=S)NC(=O)c3ccc(Br)o3)cc2)c1
inhibition (%): 45.4
--
Compound: CN1CCc2cccc3c2[C@@H]1Cc1ccc(O)c(O)c1-3
inhibition (%): 71.3
--
Compound: Cc1c(Cl)cccc1NC(=O)c1cccc(OC(F)F)c1
inhibition (%): 53
--
Compound: COc1ccccc1C(=O)Nc1ccc(OCc2nnc3c4ccccc4c(C)nn23)cc1
inhibition (%): 36.5
--
Compound: CCOC(=O)N1CCC(=NNS(=O)(=O)c2cccc([N+](=O)[O-])c2)CC1
inhibition (%): 24
--
Compound: CCN(CC)S(=O)(=O)c1ccc(NS(=O)(=O)c2cccs2)cc1
inhibition (%): 16.4
--
Compound: Cc1cccc(N2C(=O)CC(Sc3ccccc3C(=O)O)C2=O)c1 (configuration not stated)
inhibition (%): 42.5
--
Compound: CCCCNC(=O)Nc1cc(C)on1
inhibition (%): 23.2
--
Compound: CCOC(=O)/C=C/C(=O)Nc1nccs1
inhibition (%): 45.4
--
Compound: CCOC(=O)c1c(C)[nH]c2c1-c1ccccc1C(=O)C2=O
inhibition (%): 25.1
--
Compound: CCCSc1nnc(C(C)C)n1N
inhibition (%): 21.8
--
Compound: CCOC(=O)/C=C/C(=O)Nc1cccc([N+](=O)[O-])c1
inhibition (%): 66.3
--
Compound: N#CC1=C(N)Oc2n[nH]c(-c3cccs3)c2C1C1CCCCC1 (configuration not stated)
inhibition (%): 35.7
--
Compound: CCSc1nnc(-c2cnn(-c3ccccc3)c2-n2cccc2)n1C
inhibition (%): 26.1
--
Compound: CN1CCc2cccc3c2[C@H]1Cc1ccc(O)c(O)c1-3
inhibition (%): 42.5
--
Compound: CN(C)C(=N)c1n[nH]nc1SCc1ccccc1
inhibition (%): 19.9
--
Compound: CN(C)Cc1ccccc1Sc1ccccc1Br
inhibition (%): 28.9
--
Compound: CC1CC(C)CN(S(=O)(=O)c2ccc(C(=O)NCc3ccc4c(c3)OCO4)cc2)C1 (configuration not stated)
inhibition (%): 24.1
--
Compound: CC1(C)CCSC(/C=C/c2ccccc2)=N1
inhibition (%): 84
--
Compound: Cc1ccc(-c2nc3cnccn3c2Nc2c(C)cccc2C)o1
inhibition (%): 58.9
--
Compound: CCOCCCn1c(=NC(C)=O)c(C(=O)OCC)cc2c(=O)n3ccccc3nc21
inhibition (%): 23.1
--
Compound: COC(=O)/C=C\C(=O)Nc1cccc([N+](=O)[O-])c1
inhibition (%): 51.5
--
Compound: Cn1c(N)c(C(=O)COC(=O)C2(c3ccc(Cl)cc3)CCCC2)c(=O)n(C)c1=O
inhibition (%): 28.2
--
Compound: CCCCCCCCCCCCCCCCn1cc[n+](CC(C)=O)c1
inhibition (%): 76.5
--
Compound: CC(C)C(C(=O)O)N1C(=O)/C(=C/c2cccn2C)SC1=S (configuration not stated)
inhibition (%): 42.4
--
Compound: O=[N+]([O-])c1ccc2cn(-c3ccccc3)nc2c1
inhibition (%): 40.4
